experiment: recombinant barcode read abundance after kanamycin selection (control-corrected) (log10(CPM+1)); higher = more efficient recombination; sequences stand for … in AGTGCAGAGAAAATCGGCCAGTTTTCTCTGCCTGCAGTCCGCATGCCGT…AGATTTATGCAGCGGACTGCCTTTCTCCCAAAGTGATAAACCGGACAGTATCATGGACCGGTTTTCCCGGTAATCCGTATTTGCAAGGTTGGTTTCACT; site = the 11-nt target
property_label: recombinant barcode read abundance (log10)
Just the number, please, no unit after it.

>>> recorded_value("CGCGGGGCTTGGGTTCTAACCTGTTGCCT (site CGCGCGGCTAG)")
0.392
>>> recorded_value("CGCTTGACTTGGGTTCTAACCTGTTGCCT (site CGCTGGACTAG)")
0.131
>>> recorded_value("GAGGTGCCTTGGGTTCTAACCTGTTGCTG (site GAGGTGCCTCA)")
2
>>> recorded_value("TCCTGTACTTGGGTTCTAACCTGTTGCCT (site TCCTGTCCTAT)")
0.108
>>> recorded_value("GGCCCGCCTTGGGTTCTAACCTGTTGCCT (site TGCCCGCCTAG)")
0.0746
>>> recorded_value("CCTATCCCTTGGGTTCTAACCTGTTGCCT (site CCTTTCACTAG)")
0.311
>>> recorded_value("AGCGGACCTTGGGTTCTAACCTGTTGCCT (site AGCGGCCCTAG)")
0.133
>>> recorded_value("GTACCTACTTGGGTTCTAACCTGTTGCTA (site GTACCTACTTA)")
1.33
>>> recorded_value("CCTTGTTCTTGGGTTCTAACCTGTTGCTA (site TCGTGTTCTTA)")
0.149

Item under review: AACTTATCTTGGGTTCTAACCTGTTGCCT (site AACTAATCTAG) . Reported recombinant barcode read abundance (log10)? 1.02

###

recombinant UMI read abundance (log10) for assorted sequences
experiment: recombinant UMI read abundance after kanamycin selection (control-corrected) (log10(CPM+1)); higher = more efficient recombination; extreme values may be limits of the assay; sequences stand for … in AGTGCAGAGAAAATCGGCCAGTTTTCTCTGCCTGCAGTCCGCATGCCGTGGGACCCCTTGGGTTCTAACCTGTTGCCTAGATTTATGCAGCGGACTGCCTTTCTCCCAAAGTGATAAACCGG…AGGTTGGTTTCACT; site = the 11-nt donor
Could you keep your reply to the number by itself?

Answered cases to consult:
>>> recorded_value("AGGTTCCCATGGACCGGTTTTCCCGGTAATCCGTATTTGTG (site AGGTTCCCTGA)")
0
>>> recorded_value("TACTTGACATGGACCGGTTTTCCCGGTAATCCGTATTTGAT (site TACTTGACTAT)")
0.476
>>> recorded_value("GATTGGACATGGACCGGTTTTCCCGGTAATCCGTATTTGAC (site GATTGTACTGT)")
0
>>> recorded_value("GCTTGCCCATGGACCGGTTTTCCCGGTAATCCGTATTTGAT (site GCTAGCCCTAT)")
0.00265
>>> recorded_value("GCCAAGCCATGGACCGGTTTTCCCGGTAATCCGTATTTGCC (site GCCAAGCCTGG)")
0
>>> recorded_value("TTGAGGCCATGGACCGGTTTTCCCGGTAATCCGTATTTGAC (site TTGAGGCCTGT)")
0
>>> recorded_value("CTACTAGCATGGACCGGTTTTCCCGGTAATCCGTATTTGAC (site CTACTAGCTGT)")
2.64
>>> recorded_value("AAGCACGCATGGACCGGTTTTCCCGGTAATCCGTATTTGTG (site AAGCACGCTCA)")
1.42

Shift focus to the following entry.
Give its recombinant UMI read abundance (log10) value. Item: GTGCAAGCATGGACCGGTTTTCCCGGTAATCCGTATTTGGT (site GTGCAAGCTAC) 1.28

###

experiment: recombinant barcode read abundance after kanamycin selection (control-corrected) (log10(CPM+1)); higher = more efficient recombination; sequences stand for … in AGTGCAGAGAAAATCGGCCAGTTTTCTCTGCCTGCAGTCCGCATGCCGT…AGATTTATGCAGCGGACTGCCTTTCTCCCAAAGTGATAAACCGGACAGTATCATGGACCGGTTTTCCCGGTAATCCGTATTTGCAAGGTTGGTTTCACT; site = the 11-nt target
Reported recombinant barcode read abundance (log10) values for a set of sequences

# recombinant barcode read abundance (log10) lookup, item GGAGGGGCTTGGGTTCTAACCTGTTGCCT (site TGAGGTGCTAG) 0.0107

Quick one: recombinant barcode read abundance (log10) of GTAATGTCTTGGGTTCTAACCTGTTGCCT (site GAAATGTCTAG) ? 0.284

###

assay: recombinant UMI read abundance after kanamycin selection (control-corrected) (log10(CPM+1)); higher = more efficient recombination; extreme values may be limits of the assay; sequences stand for … in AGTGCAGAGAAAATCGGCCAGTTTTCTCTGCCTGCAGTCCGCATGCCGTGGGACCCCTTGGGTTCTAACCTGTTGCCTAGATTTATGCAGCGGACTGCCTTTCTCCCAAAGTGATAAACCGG…AGGTTGGTTTCACT; site = the 11-nt donor
The sequences listed here are annotated with their recombinant UMI read abundance (log10).

Use the examples below as a reference point.
>>> recorded_value("GCCAGCGCATGGACCGGTTTTCCCGGTAATCCGTATTTGCC (site GCCAGCGCTGG)")
1.98
>>> recorded_value("GAATCTACATGGACCGGTTTTCCCGGTAATCCGTATTTGCG (site GAATCTACTCG)")
1.04
>>> recorded_value("GGCAATCCATGGACCGGTTTTCCCGGTAATCCGTATTTGAA (site GGCAATCCTTG)")
0
>>> recorded_value("AGTCTTTCATGGACCGGTTTTCCCGGTAATCCGTATTTGAC (site AGTCTTTCTGT)")
0
>>> recorded_value("GTGCATTCATGGACCGGTTTTCCCGGTAATCCGTATTTGGT (site GTGCATACTAC)")
0.361
>>> recorded_value("ACACGAACATGGACCGGTTTTCCCGGTAATCCGTATTTGTC (site ACACCAACTGA)")
0
>>> recorded_value("CTAGAAACATGGACCGGTTTTCCCGGTAATCCGTATTTGCA (site CTTGAAACTTG)")
0.422
>>> recorded_value("CGAACATCATGGACCGGTTTTCCCGGTAATCCGTATTTGCC (site CGAACATCTGG)")
0.671
>>> recorded_value("TCTAATACATGGACCGGTTTTCCCGGTAATCCGTATTTGGC (site CCTAATACTGC)")
0
>>> recorded_value("AGCCTAGCATGGACCGGTTTTCCCGGTAATCCGTATTTGTT (site AGCGTAGCTAA)")
0.00795

Data request, read-out recombinant UMI read abundance (log10), for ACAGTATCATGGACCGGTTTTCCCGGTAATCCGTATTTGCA (site ACAGAATCTAG) 0

What measured recombinant UMI read abundance (log10) goes with GATTACCCATGGACCGGTTTTCCCGGTAATCCGTATTTGCT (site GATTACCCTAG) ? 0

Consider the sequence shown here: GCCAAGTCATGGACCGGTTTTCCCGGTAATCCGTATTTGGG (site GCCAAGTCTCC) What is its recorded recombinant UMI read abundance (log10)? 0.538

Which recombinant UMI read abundance (log10) value is on record for CGAGTACCATGGACCGGTTTTCCCGGTAATCCGTATTTGAC (site CGAGTACCTGT) ? 0

If you can, please state the reported recombinant UMI read abundance (log10) value of AGTCTTTCATGGACCGGTTTTCCCGGTAATCCGTATTTGAC (site AGACTTTCTGT) . 0

Which value of recombinant UMI read abundance (log10) has been reported for CTGCATGCATGGACCGGTTTTCCCGGTAATCCGTATTTGGT (site TTGCATGCTAC) in the records? 0.0633

What value of recombinant UMI read abundance (log10) has been recorded for this entry: CGTTTGGCATGGACCGGTTTTCCCGGTAATCCGTATTTGTT (site CGTTTGGCTAA) 0.693

Could you share which recombinant UMI read abundance (log10) value was measured for AATGAAGCATGGACCGGTTTTCCCGGTAATCCGTATTTGTC (site AATGAAGCTGA) ? 2.09

###

experiment: recombinant barcode read abundance after kanamycin selection (control-corrected) (log10(CPM+1)); higher = more efficient recombination; sequences stand for … in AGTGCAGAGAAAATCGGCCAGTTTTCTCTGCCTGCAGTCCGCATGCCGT…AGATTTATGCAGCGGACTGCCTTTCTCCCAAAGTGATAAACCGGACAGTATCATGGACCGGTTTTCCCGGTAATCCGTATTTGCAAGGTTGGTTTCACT; site = the 11-nt target
property_label: recombinant barcode read abundance (log10)
I'd appreciate a reply containing only the number, no unit.

A selection of reference data follows.
>>> recorded_value("GCCGACACTTGGGTTCTAACCTGTTGCCT (site GCCGACACTAG)")
0.13
>>> recorded_value("ATGGTCACTTGGGTTCTAACCTGTTGCCT (site ACGGTCACTAG)")
1.18

Quick one: recombinant barcode read abundance (log10) of CGTGACCCTTGGGTTCTAACCTGTTGCGG (site CGTGACCCTCC) ? 2.34

GET /values?readout=recombinant barcode read abundance (log10)&item= CATCCGGCTTGGGTTCTAACCTGTTGCCT (site CATCCGTCTAG) 0.255

Recorded recombinant barcode read abundance (log10) for ATAGGTTCTTGGGTTCTAACCTGTTGCCT (site ATAGGTTCTAG) , please? 1.49

Which value of recombinant barcode read abundance (log10) has been reported for TCTTAGACTTGGGTTCTAACCTGTTGCCG (site TCTTAGACTAG) in the records? 0.231

What recombinant barcode read abundance (log10) value was documented for this sequence, GGGACAACTTGGGTTCTAACCTGTTGCCT (site GGGACAACTAG) ? 0.0953

Name the reported recombinant barcode read abundance (log10) value associated with the sequence TAACCTCCTTGGGTTCTAACCTGTTGCCT (site TAACCTTCTAG) 0.127

# get_value(readout='recombinant barcode read abundance (log10)', item= TACCAGACTTGGGTTCTAACCTGTTGCCT (site TACCGGACTAG) ) 0.191

I'd like to know its recombinant barcode read abundance (log10). The sequence in question is CTCTAGTCTTGGGTTCTAACCTGTTGCGT (site CTCTAGTCTAA) 0.268

Entry CAATGGACTTGGGTTCTAACCTGTTGCCT (site CAGTGGACTAG) : reported recombinant barcode read abundance (log10) = ? 0.106

Requested field: recombinant barcode read abundance (log10). Item: TAGGATACTTGGGTTCTAACCTGTTGCAT (site TAGGATACTTT) 0.0945

Entry ACCCAAGCTTGGGTTCTAACCTGTTGCCT (site ACCCAACCTAG) : reported recombinant barcode read abundance (log10) = ? 0.199

Using the record for ACTGATGCTTGGGTTCTAACCTGTTGCCT (site ACTGATGCTAG) , report its recombinant barcode read abundance (log10). 2.09

Given the entry CTCTCCGCTTGGGTTCTAACCTGTTGCCT (site CTCTCCGCTAG) , report its measured recombinant barcode read abundance (log10). 0.77

I'd like to know its recombinant barcode read abundance (log10). The sequence in question is TGGCCCTCTTGGGTTCTAACCTGTTGCTT (site TGGCCCTCTAA) 1.63

What value of recombinant barcode read abundance (log10) has been recorded for this entry: AGTCTCGCTTGGGTTCTAACCTGTTGCGG (site AGTTTCGCTCC) 0.0153
